Value source: patent US7495088B1

# TESTED TARGET: DNase I (pancreas) (Bos taurus, UniProt P00639 P00639:23-282)
# Sequence (P00639 23-282, one chain of several): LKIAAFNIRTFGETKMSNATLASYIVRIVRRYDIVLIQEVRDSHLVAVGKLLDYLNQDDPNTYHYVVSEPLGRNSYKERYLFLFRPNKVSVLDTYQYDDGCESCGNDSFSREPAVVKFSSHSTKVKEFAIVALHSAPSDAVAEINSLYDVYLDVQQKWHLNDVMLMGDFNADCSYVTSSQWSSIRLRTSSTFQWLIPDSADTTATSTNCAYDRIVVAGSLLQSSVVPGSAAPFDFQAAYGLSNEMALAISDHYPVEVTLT
# ASSAY PROTOCOL: cleavage_in_vitro; Mg, Ca, 37 C
# PROTOCOL CONDITIONS: tags: Bethesda Research Laboratories
ENDPOINT NAME: activity (relative half-life)
Quick reminder: number only, in relative half-life, skip the unit.

Prompt line: Please report the recorded activity for TGACTTAGCTGCAT (ssDNA, 3' methylphosphonate linkage at positions 2,4,6,10,12) [14-Me5a-3] .
Response line: 300

Prompt line: Follow-up item: TGACTTAGCTGCAT (ssDNA, 3' methylphosphonate linkage at C4,C9,C12) [14-C-3]
Response line: 6

Prompt line: Follow-up item: TGACTTAGCTGCAT (ssDNA, 3' methylphosphonate linkage at positions 2,4,6,8,13) [14-Me5b-3]
Response line: 12
